Biological target: KRAS G12C (Homo sapiens (Human), UniProt P01116, C118A/G12C)
Sequence (P01116 other isoform, or with tags, fused parts or gaps G12C/C118A): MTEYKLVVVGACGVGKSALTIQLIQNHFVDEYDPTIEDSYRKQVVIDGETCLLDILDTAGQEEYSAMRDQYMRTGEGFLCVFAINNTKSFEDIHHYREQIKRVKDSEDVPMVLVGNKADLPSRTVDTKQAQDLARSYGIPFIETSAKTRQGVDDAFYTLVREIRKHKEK
Test: 2 h coupled exchange assay
Assay type: biochemical
Details: Avg 2 h Coupled exchange IC50, 2 h compound pre-incubation
Protocol: The term “2 h coupled exchange assay” or “20 h coupled exchange assay” as used herein refers to the assay described in the Section entitled “BIOLOGICAL EVALUATION.”
Response field label takes label 1 when IC50 is strictly below 400 nM and label 0 in all other cases.

>>> answer_label("C=CC(=O)N1CC2(CCN(c3nc4c(c(-c5c(C)c(C)cc6cnn(C)c56)c3C)COC(C)(C)C4)C2)C1 (single isomer, unassigned) [Example 14-41]")
"label 1"
>>> answer_label("C=CC(=O)N1CC2(CCN(c3nc4cc(-c5scnc5C)ccc4c(-c4c(O)cccc4F)c3C#N)C2)C1 [Example 19-3]")
"label 1"
>>> answer_label("C=CC(=O)N1CC2(CCN(c3nc4cc(-c5scnc5C)ccc4c(-c4cccc(C)c4C)c3C#N)C2)C1 [Example 20-6]")
"label 1"
>>> answer_label("C=CC(=O)N1CC2(CCN(c3nc4c(c(-c5cccc(F)c5O)c3C)CC[C@@H](c3c(C)cnn3C)C4)C2)C1 [Example 14-94]")
"label 1"
>>> answer_label("C=CC(=O)N1CC2(CCN(c3nc4c(c(-c5ncccc5C)c3C#N)CC[C@](C)(c3scnc3C)C4)C2)C1 [Example 23-9]")
"label 0"
>>> answer_label("C=CC(=O)N1CC2(CCN(c3nc4c(c(-c5c(C)ccc6cn[nH]c56)c3C#N)C[C@H]3C[C@@H]4C3(C)C)C2)C1 [Example 14-48]")
"label 1"
>>> answer_label("C=CC(=O)N1CC2(CCN(c3nc4cc(-c5cncs5)ccc4c(-c4ccccc4F)c3C#N)C2)C1 [Example 20-19]")
"label 1"
>>> answer_label("C=CC(=O)N1CC2(CCN(c3nc4c(c(-c5ccc(F)cc5F)c3C#N)CCN(c3scnc3C)C4)[C@H]2C)C1 [Example 21-16]")
"label 1"
>>> answer_label("C=CC(=O)N1CC2(CCN(c3nc4cc(-c5ccnn5C)ccc4c(-c4cc(O)c(F)cc4F)c3C)C2)C1 [Example 16-12]")
"label 0"
>>> answer_label("C=CC(=O)N1CC2(CCN(c3nc4c(c(-c5cc(O)ccc5Cl)c3C#N)C3CCC4N(C(C)C)C3)C2)C1 (stereo not shown) [Example 21-26]")
"label 1"
>>> answer_label("C=CC(=O)N1CC2(CCN(c3nc4c(c(-c5cccc(C)c5C)n3)CC[C@H](c3scnc3C)C4)C2)C1 (single isomer, unassigned) [Example 22-2]")
"label 0"
>>> answer_label("C=CC(=O)N1CC2(CCN(c3nc4c(c(-c5c(O)cccc5F)c3C#N)CCC(c3scnc3C)=C4)C2)C1 (single isomer, unassigned) [Example 23-51]")
"label 0"

----------
Molecular target: KRAS G12C (Homo sapiens (Human), UniProt P01116, C118A/G12C)
Test: 2 h coupled exchange assay
Type: biochemical
Details: Avg 2 h Coupled exchange IC50, 2 h compound pre-incubation
pIC50: −log10 of the molar value.
Cut-off 7 on pIC50, inclusive. At or above means yes (1); below means no (0).

>>> answer_label("C=CC(=O)N1CC2(CCN(c3nc4c(c(-c5ncccc5C)c3C#N)CCC(c3scnc3C)=C4)C2)C1 [Example 23-1]")
"no (0)"
>>> answer_label("C=CC(=O)N1CC2(CCN(c3nc4c(c(-c5c(C)ccc6cnn(C(F)F)c56)c3C#N)COC(C)(C)C4)C2)C1 [Example 14-83]")
"no (0)"
>>> answer_label("C=CC(=O)N1CC2(CCN(c3nc4c(c(-c5cccc6cc(O)ccc56)c3F)COC(C)(C)C4)C2)C1 (single isomer, unassigned) [Example 14-67]")
"no (0)"
>>> answer_label("C=CC(=O)N1CC2(CCN(c3nc4c(c(-c5ccccc5F)c3C#N)CCN(c3ccnn3C)C4)C2)C1 [Example 21-2]")
"no (0)"
>>> answer_label("C=CC(=O)N1CC2(CCN(c3nc4c(c(-c5c(C)ccc6cn[nH]c56)c3C#N)C[C@H]3C[C@@H]4C3(C)C)C2)C1 (single isomer, unassigned) [Example 14-52]")
"no (0)"
>>> answer_label("C=CC(=O)N1CC2(CCN(c3nc4c(c(-c5c(C)ccc6cnn(C)c56)c3C)CCN(C3(C)COC3)C4)C2)C1 [Example 36-1]")
"no (0)"
>>> answer_label("C=CC(=O)N1CC2(CCN(c3nc4cc(-n5ccnc5C)ccc4c(-c4ccccc4Cl)c3C#N)C2)C1 [Example 17-3]")
"yes (1)"
>>> answer_label("C=CC(=O)N1CC2(CCN(c3nc4cc(-c5scnc5C)cnc4c(-c4ccccc4OC)c3C#N)C2)C1 [Example 19-6]")
"no (0)"
>>> answer_label("C=CC(=O)N1CC2(CCN(c3nc4c(c(-c5c(C)ccc6cnn(C)c56)c3F)COC(C)(C)C4)C2)C1 (single isomer, unassigned) [Example 14-101]")
"no (0)"
>>> answer_label("C=CC(=O)N1CC2(CCN(c3nc4c(c(-c5ccc(F)c6sc(N)c(C#N)c56)c3C)COC(C)(C)C4)C2)C1 [Example 14-106]")
"yes (1)"

----------
Target: KRAS G12C (Homo sapiens (Human), UniProt P01116, C118A/G12C)
Experiment: 2 h coupled exchange assay
Type: biochemical
Settings: Avg 2 h Coupled exchange IC50, 2 h compound pre-incubation, SOS-mediated nucleotide exchange
pIC50: −log10 of the molar value.
PARAMETER_MEASURED: pIC50

>>> measured_number("C=CC(=O)N1CC2(CCN(c3nc4c(c(-c5c(C)ccc6cnn(C)c56)c3C#N)C[C@H]3C[C@@H]4C3(C)C)C2)C1 [Example 13-104]")
7.01
>>> measured_number("C=CC(=O)N1CC2(CCN(c3nc(-c4ccccc4F)c4c(n3)N([C@H](CC(=O)NC)CC(C)C)CCC4)C2)C1 (single isomer, unassigned) [Example 10]")
5.77
>>> measured_number("C=CC(=O)N1CC2(CCN(c3nc4c(c(-c5c(C)ccc6[nH]ncc56)c3C#N)OC3(COC3)C4)C2)C1 [Example 13-107]")
6.15
>>> measured_number("C=CC(=O)N1CC2(CCN(c3nc4c(c(-c5c(C)ccn6cncc56)c3C#N)C[C@H]3C[C@@H]4C3(C)C)C2)C1 [Example 12-19]")
7.43

----------
Target: KRAS G12C (Homo sapiens (Human), UniProt P01116, C118A/G12C)
Assay: 2 h coupled exchange assay
Format: biochemical
Details: Avg 2 h Coupled exchange IC50, 2 h compound pre-incubation, SOS-mediated nucleotide exchange
Response field label takes 1 (yes) when IC50 is strictly below 0.5 µM and 0 (no) in all other cases.

>>> answer_label("C=CC(=O)N1CC2(CCN(c3nc4c(c(-c5c(C)c(C)cc6cnn(C)c56)c3C)CCN(C(C)C)C4)C2)C1")
"1 (yes)"
>>> answer_label("C=CC(=O)N1CC2(CCN(c3cn4ccnc4c(-c4c(C)ccc5[nH]ncc45)c3C#N)C2)C1")
"0 (no)"
>>> answer_label("C=CC(=O)N1CC2(CCN(c3nc4c(c(-c5c(C)ccc6[nH]ncc56)c3C#N)CC(C)(C)C4)C2)C1")
"1 (yes)"
>>> answer_label("C=CC(=O)N1CC2(CCN(c3nc4c(c(-c5c(C)ccc6cnn(C)c56)c3C#N)CO[C@H](C3CC3)C4)C2)C1 (single isomer, unassigned) [Example 13-120]")
"0 (no)"
>>> answer_label("C=CC(=O)N1CC2(CCN(c3nc4c(c(-c5c(C)ccc6cnn(C)c56)c3C#N)[C@@H]3CC[C@H]4C3)C2)C1 (single isomer, unassigned) [Example 14-15]")
"1 (yes)"
>>> answer_label("C=CC(=O)N1CC2(CCN(c3nc4c(c(-c5c(C)ccc6cnn(C)c56)c3C#N)COC(C)(C)C4)C2)C1 [Example 13-49]")
"1 (yes)"
>>> answer_label("C=CC(=O)N1CC2(CCN(c3nc4c(c(-c5cccc6c(F)c(O)ccc56)c3C)COC(C)(C)C4)C2)C1")
"0 (no)"
>>> answer_label("C=CC(=O)N1CC2(CCN(c3nc4c(c(-c5c(F)cccc5CO)c3C#N)C[C@H]3C[C@@H]4C3(C)C)C2)C1")
"1 (yes)"
>>> answer_label("C=CC(=O)N1CC2(CCN(c3nc4c(c(-c5c(C(C)C)ccc6[nH]ncc56)n3)CCCC4)C2)C1")
"0 (no)"
>>> answer_label("C=CC(=O)N1CC2(CCN(c3nc(-c4c(C)ccc5[nH]ncc45)c4c(n3)C(C)CCC4)C2)C1 (centres unmarked)")
"0 (no)"
>>> answer_label("C=CC(=O)N1CC2(CCN(c3nc4c(c(-c5c(C)ccc6cnn(C)c56)c3C#N)[C@@H]3CC[C@H]4C3)C2)C1 (single isomer, unassigned) [Example 14-16]")
"0 (no)"
>>> answer_label("C=CC(=O)N1CC2(CCN(c3cc4c(c(-c5c(C(F)(F)F)ccc6[nH]ncc56)c3Cl)OCCC4)C2)C1")
"1 (yes)"
>>> answer_label("C=CC(=O)N1CC2(CCN(c3nc4c(c(-c5ccc(Cl)c6ccn(C)c56)c3C#N)COC(C)(C)C4)C2)C1")
"1 (yes)"
>>> answer_label("C=CC(=O)N1CC2(CCN(c3nc4c(c(-c5c(C)ccc6cnn(C)c56)c3C#N)C[C@H]3C[C@@H]4C3(C)C)C2)C1 (single isomer, unassigned) [Example 13-106]")
"1 (yes)"

Provenance of the data: patent US20240059703A1
